# ASSAY_OVERVIEW: Selectivity index, ratio of IC50 for rat L6 cells to IC50 for amastigotes of Leishmania donovani
# Assay type: toxicity, cell-based
# COND: read-out: Ratio IC50
RECORDED_ENDPOINT: selectivity ratio

[ask] Query: selectivity ratio; subject: N=C(N)c1ccc(COc2ccc(C(=N)N)cc2)cc1
[reply] < 14

[ask] Likewise for N=C(N)c1ccc(OCc2ccc([N+](=O)[O-])cc2)c(I)c1 ?
[reply] < 1

[ask] # iterate: COc1cc(/C(N)=N/O)cc(Br)c1OCc1cccc(/C(N)=N/O)c1.Cl.Cl
[reply] < 1

[ask] One more molecule: Cl.Cl.Cl.Cl.N/C(=N\O)c1cccc(COc2c(Cl)cc(/C(N)=N/O)cc2Cl)c1
[reply] < 1

[ask] COc1cc(/C(N)=N/O)cc(OC)c1OCc1cccc(/C(N)=N/O)c1.Cl.Cl ?
[reply] < 1

[ask] Entry to check: Cl.Cl.Cl.N/C(=N\O)c1cccc(COc2ccc(/C(N)=N/O)cc2Cl)c1
[reply] < 1

The measurements presented in this section are drawn from ChEMBL document CHEMBL2417357.
